# TARGET_UNDER_TEST: recombinant human c-Src (Homo sapiens)
# Sequence (P12931 whole entry): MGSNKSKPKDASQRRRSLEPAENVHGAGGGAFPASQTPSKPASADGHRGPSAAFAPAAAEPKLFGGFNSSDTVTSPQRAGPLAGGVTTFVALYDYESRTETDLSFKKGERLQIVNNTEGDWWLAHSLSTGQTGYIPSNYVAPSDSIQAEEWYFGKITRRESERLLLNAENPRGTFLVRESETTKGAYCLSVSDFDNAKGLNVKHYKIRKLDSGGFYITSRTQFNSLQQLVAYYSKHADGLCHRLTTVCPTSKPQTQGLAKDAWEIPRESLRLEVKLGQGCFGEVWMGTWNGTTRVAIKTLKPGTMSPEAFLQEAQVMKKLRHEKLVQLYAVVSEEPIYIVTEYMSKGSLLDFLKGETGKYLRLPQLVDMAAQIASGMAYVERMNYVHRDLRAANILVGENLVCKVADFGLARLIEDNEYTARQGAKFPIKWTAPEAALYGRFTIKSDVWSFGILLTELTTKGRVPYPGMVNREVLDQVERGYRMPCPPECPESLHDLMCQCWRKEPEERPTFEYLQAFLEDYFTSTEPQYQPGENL
# ASSAY_NOTES: c-Src kinase inhibition, KinaseGlo residual ATP
# CONDITION_SUMMARY: ATP 3 μM, 90 minutes at room temperature
# Source text: The ability of compounds to inhibit the activity of two Src-family kinases (c-Src and Yes) was directly tested.
Where a name gives a salt, the structure may show the parent alone.
Below is a list of entries, each paired with its recorded pIC50 value.
Please treat pIC50 as minus the base-10 logarithm of the molar concentration.

COMPOUND	pIC50
Nc1cncc2nc(-c3ccc(O)c(O)c3)c(-c3ccc(O)c(O)c3)nc12 [hydrochloride salt]	5.80
Nc1ncc2nc(-c3cccc(O)c3)c(-c3cccc(O)c3)nc2n1	4.56

Query: Specify reported pIC50 for the compound shown: Cl.Nc1ncnc2nc(-c3ccc(O)c(O)c3)c(-c3ccc(O)c(O)c3)nc12 [hydrochloride salt]
Reply: 5.89

Query: Specify reported pIC50 for the compound shown: Cc1cccc(C)c1-c1cc(C)c2nc(Nc3ccccc3)nnc2c1
Reply: 6.53

Query: Specify reported pIC50 for the compound shown: Nc1ncnc2nc(-c3cccc(O)c3)c(-c3cccc(O)c3)nc12 [hydrochloride salt]
Reply: 5.00

Query: Specify reported pIC50 for the compound shown: O=C(Nc1ccccc1-c1cc2ccccc2[nH]1)c1ccc(O)c(O)c1
Reply: 6.47

Query: Specify reported pIC50 for the compound shown: Oc1nc(O)c2nc(-c3ccc(O)c(O)c3)c(-c3ccc(O)c(O)c3)nc2n1
Reply: 5.74

Query: Specify reported pIC50 for the compound shown: Nc1ccc2nc(-c3ccc(O)c(O)c3)c(-c3ccc(O)c(O)c3)nc2n1 [compound C, dihydrochloride salt]
Reply: 5.89

Query: Specify reported pIC50 for the compound shown: Nc1ncnc2nc(-c3ccc(O)c(O)c3)c(-c3ccc(O)c(O)c3)nc12 [methanesulfonate salt]
Reply: 6.10

Query: Specify reported pIC50 for the compound shown: Nc1nnc2cc(-c3ccccc3C(F)(F)F)ccc2n1
Reply: 5.04

Query: Specify reported pIC50 for the compound shown: Nc1nc(N)c2nc(-c3ccc(O)c(O)c3)c(-c3ccc(O)c(O)c3)nc2n1 [dihydrochloride salt]
Reply: 5.59

Query: Specify reported pIC50 for the compound shown: Nc1nnc2cc(-c3cccc4ccccc34)ccc2n1
Reply: 6.05

Query: Specify reported pIC50 for the compound shown: Nc1ncnc2nc(-c3cccc(O)c3)c(-c3cccc(O)c3)nc12 [hydrobromide salt]
Reply: 5.06

Query: Specify reported pIC50 for the compound shown: Nc1nnc2cc(-c3cccc(O)c3)ccc2n1
Reply: 4.92

Query: Specify reported pIC50 for the compound shown: Oc1ccc(CNc2ncnc3ncc(-c4ccccc4)nc23)cc1O
Reply: 6.38

Query: Specify reported pIC50 for the compound shown: Oc1ccc(CCNc2ncnc3ncc(-c4ccccc4)nc23)cc1O
Reply: 6.50
